Settings: in ethanol, 318.15 K
PROPERTY: solubility (mole fraction)
Reply briefly: the number, and no unit.

So what's the measured solubility (mole fraction) for this one? `C#CC(C)(C)NC(=O)c1cc(Cl)cc(Cl)c1`
0.0242

###

Details: in isopropanol, 303.15 K
PROPERTY: solubility (mole fraction)
Reply briefly: the number, and no unit.

So what's the measured solubility (mole fraction) for this one? `C#CC(C)(C)NC(=O)c1cc(Cl)cc(Cl)c1`
0.00865

###

Conditions: in isopropanol, 278.15 K
PROPERTY: solubility (mole fraction)

So what's the measured solubility (mole fraction) for this one? `C#CC(C)(C)NC(=O)c1cc(Cl)cc(Cl)c1`
0.00219

Data credit: BigSolDB 2.1
